System: NCI-H460
assay.overview: NCI tumour cell line growth inhibition, 48 h
Activity calls are given as the source filed them. Cut-off read from the data, not from the text of the source: active = GI50 up to about 1.1 µM and inactive = higher.
experimental.readout: GI50

QUERY: Sample OC1(c2ccccc2)CCCCCCCCC(O)(c2ccccc2)CCCCCCCC1 (centres undefined) — what was its GI50?
RESULT: > 100 µM (inactive)

QUERY: GET /values?readout=GI50&item= CN(C)c1ccc(/C=C2\Oc3ccccc3C2=O)cc1
RESULT: > 100 µM (inactive)

QUERY: Form field: reported GI50 of CCOC(=O)CNC(=O)C(CSCc1ccc(Br)cc1)NC(=O)CCC(N)C(=O)OCC (centres undefined)
RESULT: > 50 µM (inactive)

QUERY: What value of GI50 has been recorded for this entry: Nc1nc(N)nc(CC(=O)O)n1
RESULT: > 100 µM (inactive)

QUERY: Please look up its GI50: CC(NNC(=O)c1cc[n+]([BH2-]C#N)cc1)c1ccc(Cl)cc1Cl (centres undefined)
RESULT: 44.1 µM (inactive)

QUERY: Suppose we examine the compound O=C1Nc2ccccc2C(=O)/C1=C/NC(=S)NCCc1ccccc1 ; what GI50 value has been reported?
RESULT: > 100 µM (inactive)

QUERY: Endpoint output: GI50 of C=CC1(C)CCC2=C(CCC3C(C)(C(=O)OC)CCCC23C)C1=O (centres undefined) . Value?
RESULT: 18.3 µM (inactive)

QUERY: Would you kindly share the measured GI50 for CC(CN1CCN(CC(C)Nc2ccnc3cc(Cl)ccc23)CC1)Nc1ccnc2cc(Cl)ccc12 (centres undefined) ?
RESULT: 14.7 µM (inactive)

QUERY: Name the reported GI50 value associated with the compound CC(C)(C)OC(=O)CC(NC(=O)OC(C)(C)C)C(=O)NC(C(=O)O)C(O)c1ccccc1 (centres undefined)
RESULT: 69.7 µM (inactive)

QUERY: What value of measured GI50 is listed for CN1C(=S)CSc2ccccc21 ?
RESULT: > 100 µM (inactive)
